Reference source: patent US11028085B2

Let's go through some recorded pIC50 values for HPK1 (Homo sapiens (Human), UniProt Q92918) together.
pIC50: −log10 of the molar value. Counter-ions that a name gives are not always drawn.

Known pIC50 results, listed for orientation:
molecule	system	measurement-name	endpoint-result
Cc1cccn2c(-c3ccc(Nc4ccc(C5CCOC5)c(CN(C)C)n4)c4c3CNC4=O)cnc12 (stereo in doubt) [I-695]	HPK1 (Homo sapiens (Human), UniProt Q92918)	pIC50	> 7.00
CC1NC(=O)c2c(Nc3ccc(N4CCC(O)CC4)cn3)ccc(-c3ccnc4c3ccn4C)c21 (stereo in doubt) [I-286]	HPK1 (Homo sapiens (Human), UniProt Q92918)	pIC50	< 6.00
Cc1ccn2c(-c3ccc(Nc4ccc([C@H]5CCOC5)c(CN(C)C)n4)c4c3CNC4=O)cnc2n1 (stereo in doubt)	HPK1 (Homo sapiens (Human), UniProt Q92918)	pIC50	> 7.00
CN(C)Cc1nc(Nc2cnc(-c3cccc4c3ccn4C)c3c2C(=O)NC3)ccc1[C@@H]1CCOC1 (single isomer, unassigned)	HPK1 (Homo sapiens (Human), UniProt Q92918)	pIC50	> 7.00
O=C1NCc2c(-c3cnc4cc(CO)ccn34)ccc(Nc3ccc(N4CCC(O)CC4)cn3)c21	HPK1 (Homo sapiens (Human), UniProt Q92918)	pIC50	> 7.00
O=C1NCc2c(-c3cnc4cc(F)ccn34)ccc(Nc3ccc(N4CCO[C@@H]5CNC[C@@H]54)cn3)c21	HPK1 (Homo sapiens (Human), UniProt Q92918)	pIC50	> 7.00
Cc1cccn2c(-c3ccc(Nc4ccc(C5CCOC5)c(CN(C)C)n4)c4c3CNC4=O)cnc12 (stereo in doubt) [I-696]	HPK1 (Homo sapiens (Human), UniProt Q92918)	pIC50	> 7.00
O=C1NCc2c(-c3cnc4ccccn34)ncc(Nc3ccc(N4CCOCC4)cn3)c21	HPK1 (Homo sapiens (Human), UniProt Q92918)	pIC50	6.00 to 7.00

Query block: pIC50 lookup needed for Cn1ccc2c(-c3ncc(Nc4ccc(C5CCOC5)c(CN5CCCC5)n4)c4c3CNC4=O)ccnc21 (stereo not drawn) , thanks.
Result block: > 7.00

Query block: Look at this molecule and give its reported pIC50. CC1NC(=O)c2c(Nc3ccc(N4CCC(O)CC4)cn3)ccc(-c3ccnc4c3ccn4C)c21 (stereo in doubt) [I-287]
Result block: > 7.00

Query block: I have this molecule here, "Cc1cnc2c(-c3ccc(Nc4ccc(N5CCC(O)CC5)cn4)c4c3CNC4=O)cnn2c1" , and I need its recorded pIC50.
Result block: > 7.00

Query block: // query pIC50 value for entry "Cc1ccc2c(-c3ccc(Nc4ccc(CN5CCOCC5)cn4)c4c3CNC4=O)cnn2c1"
Result block: > 7.00

Query block: Report pIC50 for "O=C1NCc2c(-c3ncc4cnccn34)ccc(Nc3ccc(N4CCC(O)CC4)cn3)c21" please.
Result block: 6.00 to 7.00

Query block: Suppose we examine the molecule COCC1(O)CCN(c2ccc(Nc3cnc(-c4ccnc5c4ccn5C)c4c3C(=O)NC4)nc2CN(C)C)CC1 [I-851, Formate salt] ; what pIC50 value has been reported?
Result block: > 7.00

Query block: Please look up its pIC50: Cc1cccn2c(-c3ncc(Nc4ccc(C5CCOC5)c(CN(C)C)n4)c4c3CNC4=O)cnc12 (stereo not drawn)
Result block: > 7.00
